- System: MCF-7
- experimentDescription: Cytotoxicity assay (SRB), MCF-7
- Type: cell-based
- recordedConditions: Homo sapiens, MCF7, 72 h, MCF-7 cells, SRB, three days; read-out: In Vitro Cellular Activity IC50 MCF-7
pIC50: −log10 of the molar value.
Returns 1 if the recorded pIC50 is greater than or equal to 5, and -1 otherwise.

compoundSmiles: COc1ccc(/C=C2/C(=O)NC(=O)c3ccccc32)cc1OC
categoryLabel: -1

compoundSmiles: CN1CCN(c2ccc(N/C=C3\C(=O)NC(=O)c4ccc(C#Cc5ccsc5)cc43)cc2)CC1
categoryLabel: 1

compoundSmiles: CN1CCN(c2ccc(N/C=C3\C(=O)NC(=O)c4ccc(-c5ccoc5)cc43)cc2F)CC1
categoryLabel: 1

compoundSmiles: CC(=O)Nc1ccc(CN/C=C2\C(=O)NC(=O)c3ccc(-c4ccsc4)cc32)cc1O
categoryLabel: -1

compoundSmiles: CN1CCN(c2ccc(N/C=C3\C(=O)NC(=O)c4cc(Br)ccc43)cc2)CC1
categoryLabel: -1

compoundSmiles: O=C1NC(=O)c2ccc(Br)cc2/C1=C/NCc1ccc(NC(=O)C(Cl)Cl)c(O)c1
categoryLabel: 1

compoundSmiles: COC[C@H]1CCCN1Cc1ccc(N/C=C2\C(=O)NC(=O)c3ccc(Br)cc32)cc1
categoryLabel: 1

Could you now look at the following molecule, please?
IN: Kindly determine if pIC50 recorded for `Cc1nn(-c2ccc(NC=C3C(=O)NC(=O)c4ccc(Br)cc43)cc2)c(C)c1Cl` is above or exactly 5.
OUT: 1

---

- systemUnderTest: cyclin D1/cdk 4 enzyme (Homo sapiens, UniProt P11802)
- Construct: made in house; host or cells: Sf9 insect cells, recombinant baculovirus
- Sequence (P11802 whole entry, species assumed): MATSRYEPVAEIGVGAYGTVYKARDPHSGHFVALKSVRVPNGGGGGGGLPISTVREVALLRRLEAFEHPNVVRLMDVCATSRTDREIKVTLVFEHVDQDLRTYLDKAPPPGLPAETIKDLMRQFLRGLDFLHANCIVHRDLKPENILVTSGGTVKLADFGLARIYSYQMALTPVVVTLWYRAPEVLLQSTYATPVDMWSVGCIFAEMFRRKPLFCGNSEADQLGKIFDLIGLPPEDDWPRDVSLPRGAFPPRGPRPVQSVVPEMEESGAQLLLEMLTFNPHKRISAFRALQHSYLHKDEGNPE
- Sequence (P24385 whole entry partner, species assumed): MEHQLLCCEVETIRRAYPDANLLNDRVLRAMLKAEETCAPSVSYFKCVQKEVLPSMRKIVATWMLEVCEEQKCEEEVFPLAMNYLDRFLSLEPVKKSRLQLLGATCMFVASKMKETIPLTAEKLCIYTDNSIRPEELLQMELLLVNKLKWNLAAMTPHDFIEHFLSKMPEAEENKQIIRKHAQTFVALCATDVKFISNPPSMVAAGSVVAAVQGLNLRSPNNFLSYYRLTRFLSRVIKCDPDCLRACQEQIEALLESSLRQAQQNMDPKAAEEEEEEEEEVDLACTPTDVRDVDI
- experimentDescription: CDK4 ELISA kinase assay (phospho-Rb ser 795 detection)
- Assay type: biochemical
- recordedConditions: In Vitro Enzyme Assay, cyclin D1/cdk 4, read-out: CDK4 IC50
readout: pIC50
Note on units: pIC50 is unitless, being -log10 of a concentration expressed in mol/L.

compoundSmiles: CN1CCN(c2ccc(NC=C3C(=O)NC(=O)c4ccc(C=C5CCCC5)cc43)cc2)CC1
pIC50: 5.36
//
compoundSmiles: O=C1NC(=O)c2ccccc2C1=CNc1ccc(CNS(=O)(=O)CC(F)(F)F)cc1
pIC50: 4.66

IN: Recorded pIC50 for `O=C1NC(=O)c2ccc(C=CC3CCCCC3)cc2C1=CNCc1ccc(O)c(O)c1` , please?
OUT: 6.66

IN: Report pIC50 for `CN1CCN(c2ccc(NC=C3C(=O)NC(=O)c4ccc(C=Cc5cnccn5)cc43)cc2)CC1` please.
OUT: 5.94

IN: Would you kindly share the measured pIC50 for `COc1ccc(NC=C2C(=O)NCc3cc(Br)ccc32)cc1O` ?
OUT: 4.51

IN: What pIC50 value was documented for this compound, `CCN(CC)CCn1ccc2cc(-c3ccc4c(c3)C(=CNc3ccc(N5CCN(C)CC5)cc3)C(=O)NC4=O)ccc21` ?
OUT: 6.51

IN: Please report the recorded pIC50 for `O=C1NC(=O)c2ccc(C=CCN3CCNCC3)cc2C1=CNCc1ccc(O)c(O)c1` .
OUT: 5.60

---

- systemUnderTest: Cyclin D1/CDK6 (Homo sapiens, UniProt Q00534)
- Construct: made in house; host or cells: Sf9 insect cells, recombinant baculovirus
- Sequence (Q00534 whole entry, species assumed): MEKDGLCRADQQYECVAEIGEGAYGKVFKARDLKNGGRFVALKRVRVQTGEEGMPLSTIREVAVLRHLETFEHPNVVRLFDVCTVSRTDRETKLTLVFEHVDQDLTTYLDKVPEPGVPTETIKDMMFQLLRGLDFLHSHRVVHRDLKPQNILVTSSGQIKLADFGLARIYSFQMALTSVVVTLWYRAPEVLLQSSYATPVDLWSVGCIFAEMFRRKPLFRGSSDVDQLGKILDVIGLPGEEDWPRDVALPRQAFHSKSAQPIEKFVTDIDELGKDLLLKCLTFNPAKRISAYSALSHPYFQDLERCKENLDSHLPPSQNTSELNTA
- Sequence (P24385 whole entry partner, species assumed): as the sequence (P24385 whole entry partner, species assumed) above
- experimentDescription: Cyclin D1/CDK6 Elisa
- Format: biochemical
- recordedConditions: 200 μM ATP
Please note: IC50 exactly at 0.03 µM is 0. Only values below 0.03 µM get 1.

Sample answers from the record:
molecule: CN1CCN(c2ccc(N/C=C3\C(=O)NC(=O)c4ccc(I)cc43)cc2)CC1 [Example 81]
systemUnderTest: Cyclin D1/CDK6 (Homo sapiens, UniProt Q00534)
categoryLabel: 0
--
molecule: O=C1NC(=O)c2ccc(-n3cccc3)cc2/C1=C/Nc1ccc(CN2CCCCC2)cc1 [Example 74]
systemUnderTest: Cyclin D1/CDK6 (Homo sapiens, UniProt Q00534)
categoryLabel: 1
--
molecule: COc1ccc(CN/C=C2\C(=O)NC(=O)c3ccc(-n4cccc4)cc32)cc1O [Example 71]
systemUnderTest: Cyclin D1/CDK6 (Homo sapiens, UniProt Q00534)
categoryLabel: 1
--
molecule: COc1cc(CN/C=C2\C(=O)NC(=O)c3ccc(Br)cc32)cc(O)c1OC [compound 78]
systemUnderTest: Cyclin D1/CDK6 (Homo sapiens, UniProt Q00534)
categoryLabel: 1
--
molecule: O=C1NC(=O)c2ccc(Cl)cc2/C1=C/Nc1ccc(CN2CCCCC2)cc1 [Example 55]
systemUnderTest: Cyclin D1/CDK6 (Homo sapiens, UniProt Q00534)
categoryLabel: 0

IN: Hi there! Is IC50 for COc1ccc(CN/C=C2\C(=O)NC(=O)c3ccc(I)cc32)cc1O [Example 80] below 0.03 µM, do you know?
OUT: 1

IN: Quick check: does COc1cc(CN/C=C2\C(=O)NC(=O)c3ccc(-c4ccccc4)cc32)cc(O)c1OC [Example 86] have IC50 under 0.03 µM?
OUT: 1

IN: Dear colleague, could you confirm whether IC50 of COc1ccc(CN/C=C2\C(=O)NC(=O)c3cccc(Br)c32)cc1O [Example 84] falls below 0.03 µM? Thanks.
OUT: 0

---

- Test system: BT474
- experimentDescription: Cytotoxicity assay (SRB), BT474
- Type: cell-based
- recordedConditions: Homo sapiens, BT-474, 144 h, BT474 cells, 6 days, SRB; read-out: In Vitro Cellular Activity IC50 BT474
readout: log10 IC50 (log10 of the value in µM)
Scale: log10; quantity: IC50; unit before log: µM

Solved entries (count: 10):
molecule: CN1CCN(c2cnc(N/C=C3\C(=O)NC(=O)c4ccc(I)cc43)cn2)CC1 [Example 507]
log10 IC50: 0.98

molecule: O=C1NC(=O)c2ccc(-c3ccc(Cl)cc3)cc2C1=CNCc1ccc(O)c(O)c1 [Example 778]
log10 IC50: 1.44

molecule: COc1ccc(CNC=C2C(=O)NC(=O)c3ccc(C=CCc4cccc(OC)c4O)cc32)cc1O [Example 827]
log10 IC50: 1.42

molecule: O=C1NC(=O)c2ccc(-c3ccsc3)cc2/C1=C/Nc1ccc(N2CCN(CC3CC3)CC2)nc1 [Example 418]
log10 IC50: 0.43

molecule: O=C1NC(=O)c2ccc(-c3ccco3)cc2C1=CNCc1ccc(O)c(O)c1 [Example 621]
log10 IC50: 0.54

molecule: O=C1NC(=O)c2ccc(-c3nccs3)cc2/C1=C/Nc1ccc(CN2CCC[C@H]2CO)cc1 [Example 472]
log10 IC50: 0.96

molecule: CCCOc1cn(C)c(CN/C=C2\C(=O)NC(=O)c3ccc(I)cc32)cc1=O [Example 471]
log10 IC50: 1.34

molecule: O=C1NC(=O)c2ccc(-c3csc4ccccc34)cc2C1=CNCc1ccc(O)c(O)c1 [Example 645]
log10 IC50: 1.19

molecule: O=C1NCc2cc(Br)ccc2C1=CNc1ccc(CCO)cc1 [Example 863]
log10 IC50: 1.49

molecule: CCNCC1CCN(c2ccc(N/C=C3\C(=O)NC(=O)c4ccc(I)cc43)cc2)CC1 [Example 456]
log10 IC50: 0.96

IN: Which measured log10 IC50 value corresponds to CN1CCN(c2ccc(NC=C3C(=O)NC(=O)c4ccc(C=Cc5ccc(N)cc5)cc43)cc2)CC1 [Example 725] ?
OUT: 1.29

IN: What value of measured log10 IC50 is listed for O=C1NC(=O)c2ccc(-c3cccc(C(F)(F)F)c3)cc2C1=CNCc1ccc(O)c(O)c1 [Example 773] ?
OUT: 1.32

IN: Item under review: CN(C)CCCc1ccc(N/C=C2\C(=O)NC(=O)c3ccc(Br)cc32)cc1 [Example 874] . Reported log10 IC50?
OUT: 1.44

IN: # lookup: log10 IC50 of CC(C)N1CCN(c2ccc(N/C=C3\C(=O)NC(=O)c4ccc(-c5ccoc5)cc43)nc2)CC1 [Example 488]
OUT: -0.02

IN: Record request: log10 IC50 value, item O=C1NC(=O)c2ccc(-c3ccc(F)cc3)cc2/C1=C/Nc1ccc(CN2CCC(CCO)CC2)cc1 [Example 482]
OUT: 0.11

IN: log10 IC50 lookup needed for CN1CCN(c2ccc(NC=C3C(=O)NC(=O)c4ccc(C=CCn5ccnc5)cc43)cc2)CC1 [Example 679] , thanks.
OUT: 1.19

IN: Suppose we examine the molecule O=C1NC(=O)c2ccc(-c3ccco3)cc2/C1=C/Nc1ccc(CN2CCC[C@H]2CO)cc1 [Example 466] ; what log10 IC50 value has been reported?
OUT: 0.15

IN: # query: log10 IC50 of entry O=C1NC(=O)c2ccc(-c3ccccc3)cc2C1=CNCc1ccc(O)c(O)c1 [Example 620]
OUT: 1.19

IN: Returns the measured log10 IC50 for the input molecule. Input: COc1cnc(CN/C=C2\C(=O)NC(=O)c3ccc(I)cc32)nc1O [Example 479]
OUT: 1.63
